- Test system: HL-60
- METHOD NOTES: NCI tumour cell line growth inhibition, 48 h
The source made the active and inactive calls. No stated cut-off is given here; in the data, active = GI50 up to about 1.1 µM and inactive = higher.
MEASURE: GI50

Recorded results for 5 compounds are shown here.
# COMPOUND, TESTED TARGET, RESULT
measured = [
    ("Cc1ccc(NC(=O)C(=O)C2C(=O)C3=C(CC2(C)C)NC2C=CC=CC2S3)c(C)c1 (stereo unspecified)", "HL-60", "> 100 µM (inactive)"),
    ("N#Cc1cc([N+](=O)[O-])ccc1NC(=O)C(F)(F)F", "HL-60", "> 57.1 µM (inactive)"),
    ("CCCCCCCCCCCCCCCCP(=O)(O)OP(=O)(O)OCC1OC(n2cnc3c(N)ncnc32)C(O)C1O (stereo unspecified)", "HL-60", "35.4 µM (inactive)"),
    ("C=C(CN(C)C)C(=O)c1ccccc1[N+](=O)[O-]", "HL-60", "2.79 µM (inactive)"),
    ("Cc1ccc2c(=O)cc(-c3ccc(-c4ccccc4)s3)[nH]c2n1", "HL-60", "> 23.6 µM (inactive)"),
]

Requested field: GI50. Item: "CCSc1nc(N/N=C/c2cccs2)c2cnn(CO)c2n1" 5.15 µM (inactive)

Give the measured GI50 of "O=C(NN1CCCCC1)c1cc2cc(CCl)ccc2oc1=O" . 16.5 µM (inactive)

Using the record for "Cc1ccc(S(=O)(=O)c2c(O)c3ccc(O)c(C)c3oc2=O)cc1" , report its GI50. 23.4 µM (inactive)

Would you kindly share the measured GI50 for "CCOC(=O)/C=C/c1c(C)[nH]c(=O)[nH]c1=O" ? > 250 µM (inactive)

State the recorded GI50 for this entry: "Cc1noc(NC(=O)Nc2ccccc2F)c1C#N" 84.5 µM (inactive)

Fill in the blank: the reported GI50 of "O=C(/C=C/c1ccc(O)c(O)c1)OCCc1cccc2ccccc12" is ____. 1.38 µM (inactive)

###

- Test system: MDA-MB-435
- METHOD NOTES: NCI tumour cell line growth inhibition, 48 h
Calls of active or inactive are those of the source. Cut-off read from the data, not from the text of the source: active = GI50 up to about 1.1 µM and inactive = higher.
MEASURE: GI50

# COMPOUND, GI50
data = [
    ("c1ccc(COc2nc3cc(C45CC6CC(CC(C6)C4)C5)ccc3[nH]2)cc1", "8.95 µM (inactive)"),
]

Given CCOc1ccc(/N=N/C2C(=O)N(C(=O)CC(=O)Nc3ccc(Cl)cc3)N=C2C)cc1 (stereo not given) , state its recorded GI50. > 100 µM (inactive)

Please give the measured GI50 for this compound: "O=C1NC2(CCN(CCCC3(c4ccc(F)cc4)OCCO3)CC2)Oc2ccccc21" > 100 µM (inactive)

Requested read-out: GI50. Entry: "COc1cc2c(cc1OC)-c1cc3ccccc3c[n+]1CC2" > 100 µM (inactive)

###

- System: CCRF-CEM
- METHOD NOTES: NCI tumour cell line growth inhibition, 48 h
The source made the active and inactive calls. No stated cut-off is given here; in the data, active = GI50 up to about 1.1 µM and inactive = higher.
# valid calls are active, inactive; nothing else

# COMPOUND, TESTED TARGET, ASSIGNED CLASS
records = [
    ("COc1ccc(C(=O)Nc2ccc3oc(-c4ccccc4)nc3c2)cc1", "CCRF-CEM", "inactive"),
    ("Nc1ccc(Sc2nnc(N)s2)cc1", "CCRF-CEM", "inactive"),
    ("CN(c1ccc(Cl)cc1)S(=O)(=O)c1ccccc1", "CCRF-CEM", "inactive"),
]

For "CC(=O)OC[C@@H]1[C@H]2CC[C@]3(C)[C@@H](OC(C)=O)CC[C@H]3[C@@H]2CC[C@H]1C1(C)SCCS1" , what call appears in the results of this test? inactive

###

The entries below come with measured GI50 values attached.
- System: OVCAR-8
- METHOD NOTES: NCI tumour cell line growth inhibition, 48 h
Calls of active or inactive are those of the source. Rule as the data show it: active = GI50 up to about 1.1 µM and inactive = higher.

Worked examples follow.
# MOLECULE, RESULT
rows = [
    ("COC1C(OC(=O)/C=C/C=C/C=C/C=C/C(=O)O)CCC2(CO2)C1C1(C)OC1CC=C(C)C (stereo not given)", "29.3 µM (inactive)"),
    ("Clc1ccc(/C=C/c2nc(Cl)c(-c3ccc(Cl)cc3)c(Cl)n2)cc1", "> 100 µM (inactive)"),
    ("Oc1ccc2ccccc2c1/N=N/c1cccc2ccccc12", "44.1 µM (inactive)"),
    ("COC(=O)C(C)(C)OCc1ccc(C2NC(=O)N(c3cccc(Cl)c3)C(=O)N2c2cccc(Cl)c2)cc1 (stereo not given)", "32.6 µM (inactive)"),
    ("C=C1C[C@@H]2C[C@@H](C)CC(O)[C@]2(CCCN)C1O (stereo not given in full)", "> 100 µM (inactive)"),
]

Which GI50 value belongs to CC1(C)COP(=S)(c2ccccn2)O[C@@H]1c1ccccc1 (stereo not given in full) ? > 100 µM (inactive)

Which GI50 reading was recorded for the molecule "Cc1nnc2sc(-c3ccc(N)cc3)nn12" ? > 100 µM (inactive)

Param item = COc1cc(C2c3cc4c(cc3OC(O)C2C)OCO4)cc(OC)c1O (stereo not given) ; retrieve measured GI50. 16.6 µM (inactive)

Any idea what GI50 was measured for Cc1ccc2c(O)c3c(cc2c1)C(=O)c1c2c(cc(O)c1C3=O)C1(C)OC(O2)C(O)C(N(C)C)C1O (stereo not given) ? 1.19 µM (inactive)

I'd like to know its GI50. The molecule in question is "Cn1c(=O)nc2n(-c3ccc(F)c(F)c3)c3ccccc3nc-2c1=O" 13.2 µM (inactive)

###

compounds and their reported GI50
- Test system: OVCAR-4
- METHOD NOTES: NCI tumour cell line growth inhibition, 48 h
The source made the active and inactive calls. Cut-off read from the data, not from the text of the source: active = GI50 up to about 1.1 µM and inactive = higher.

The following compounds have reported results that may help.
# COMPOUND, GI50
measured = [
    ("CC1(C)OC(=O)C(C)(C)C(=O)O1", "> 100 µM (inactive)"),
    ("O=[N+]([O-])c1cc(/N=N/c2c(O)ccc3cc(S(=O)(=O)O)ccc23)c(O)c([N+](=O)[O-])c1", "> 100 µM (inactive)"),
    ("CCNc1cnc2c(n1)c(=O)n(C)c(=O)n2C", "> 100 µM (inactive)"),
    ("O=C1CSCC(=O)Nc2ccccc2N1", "> 100 µM (inactive)"),
    ("O=C1CCCC1C(O)(C(F)(F)F)C(F)(F)F (configuration not stated)", "> 100 µM (inactive)"),
    ("Cc1ccc(NC(=O)COc2ccc(Cl)cc2)cc1Cl", "> 100 µM (inactive)"),
    ("Cc1ccc2c(c1)C(=O)/C(=C\\c1ccccc1)CCS2(=O)=O", "12 µM (inactive)"),
    ("CCOC(=O)C(CCSC)(CCSC)C(=O)OCC", "> 100 µM (inactive)"),
    ("C=C(C)C(=O)O[C@H]1CC2=C[C@@H](C[C@@]3(C)O[C@@H]3[C@H]3OC(=O)C(=C)[C@@H]31)OC2=O", "2.61 µM (inactive)"),
    ("Cc1nc(N(C(C)C)C(C)C)c(C(C)C)o1", "> 100 µM (inactive)"),
]

Suppose we examine the compound "Cc1cc(CC(=O)NCCO)n(CCO)c(=O)c1" ; what GI50 value has been reported? > 100 µM (inactive)

Fill blank: measured GI50 of the compound CN(CCO)CCCC1COc2ccccc2O1 (configuration not stated) is ____. > 100 µM (inactive)

Requested read-out: GI50. Entry: CCc1n[nH]c(=O)n1N1C(=O)C2CCCCC2C1=O (configuration not stated) > 100 µM (inactive)

Field request: GI50 | item: "C/C(=C\COP(=O)(O)OP(=O)(O)O)CC/C=C(\C)CNc1ccc([N+](=O)[O-])cc1" > 100 µM (inactive)

Param item = "COc1ccccc1NC(=S)Nc1cc(C)cc(C)n1" ; retrieve measured GI50. > 100 µM (inactive)

Tell me the measured GI50 of Oc1nc2cc(Cl)ccc2nc1/C(=N\Nc1ccccc1)C(O)c1ccc(Cl)c(Cl)c1 (configuration not stated) , please. > 100 µM (inactive)

# input compound: "CC(C)Oc1cccc(N2C(NCCc3c[nH]c4ccccc34)=Nc3ccncc3S2(=O)=O)c1" ; wanted: its GI50 8 µM (inactive)

So what's the measured GI50 for this one? CCCCCCC(O)CC[C@H]1CCC[C@@H](C)N1 (some centres not stated) > 10 µM (inactive)

###

- Tested on: SF-295
- METHOD NOTES: NCI tumour cell line growth inhibition, 48 h
Active and inactive are the calls of the source. Cut-off read from the data, not from the text of the source: active = GI50 up to about 1.1 µM and inactive = higher.
Measured GI50, listed per entry for reference.

# example entries with known answers
# MOLECULE, GI50
measured = [
    ("Nn1c(S)nnc1-c1ccccc1Nc1ccccc1-c1nnc(S)n1N", "> 50 µM (inactive)"),
    ("O=C(NCCCN(CCCCN(CCCNC(=O)C(F)(F)F)CCCc1ccccc1)CCCc1ccccc1)C(F)(F)F", "1.81 µM (inactive)"),
    ("Cc1ccc2nc(NC(=O)C(=O)C(C(=O)c3ccc4ccccc4c3)C3OC(=O)c4ccccc43)sc2c1 (stereo not given)", "4.61 µM (inactive)"),
    ("CC(=O)N(C(=O)CC(=O)N/N=C\\c1ccc(Br)c(N(CCC#N)CCC#N)c1)c1ccc(Cl)cc1", "22.7 µM (inactive)"),
]

Hi! What's the reported GI50 for "CC1(C)OC(=O)C(C)(C)C(=O)O1" on SF-295? > 100 µM (inactive)
